# Species on record: Mus musculus
# procedure_summary: Oral potency tested by using anti-mescaline test
# Format: functional
ED50 values, listed per item

[[record]]
compound = "O=C(CC1CCN(CCc2ccc(C(F)(F)F)cc2)CC1)c1ccc(F)cc1"
result = "< 10 mg/kg"

[[record]]
compound = "COC(=O)c1ccc(COCC2CCN(Cc3ccccc3)CC2)cc1.Cl.O"
result = "> 30 mg/kg"

[[record]]
compound = "COc1ccc(COCC2CCN(Cc3ccccc3)CC2)cc1.O=C(O)/C=C\\C(=O)O"
result = "> 30 mg/kg"

[[record]]
compound = "Cl.Fc1ccc(COCC2CCN(CC3CCCCC3)CC2)cc1"
result = "> 10 mg/kg"


In: Name the recorded ED50 for "O.c1ccc(CN2CCC(COc3ccc4ccccc4c3)CC2)cc1" .
Out: > 30 mg/kg

In: Name the recorded ED50 for "O.O=C(CC1CCN(Cc2ccccc2)CC1)c1ccc(CO)cc1" .
Out: > 30 mg/kg

In: Name the recorded ED50 for "CC(=O)c1ccc(OCC2CCN(CC3CC3)CC2)cc1" .
Out: > 30 mg/kg

In: Name the recorded ED50 for "O.OCc1ccc(OCC2CCN(CC3CC3)CC2)cc1" .
Out: > 30 mg/kg

In: Name the recorded ED50 for "O.O=C(CC1CCN(CCc2c[nH]c3ccccc23)CC1)c1ccc(F)cc1" .
Out: < 10 mg/kg

Numbers sourced from ChEMBL document CHEMBL1125363.
